Molecular target: T1, hCDH17-his (full length extracellular domain of human CDH17, Q23-M787, his tag at the C-terminal) (human, UniProt Q12864 23-787)
T1 construct: Limits of the construct (UniProt Q12864, Q23-M787, C-terminal his tag); also called human CDH17-his protein; human CDH17 protein
T1 sequence: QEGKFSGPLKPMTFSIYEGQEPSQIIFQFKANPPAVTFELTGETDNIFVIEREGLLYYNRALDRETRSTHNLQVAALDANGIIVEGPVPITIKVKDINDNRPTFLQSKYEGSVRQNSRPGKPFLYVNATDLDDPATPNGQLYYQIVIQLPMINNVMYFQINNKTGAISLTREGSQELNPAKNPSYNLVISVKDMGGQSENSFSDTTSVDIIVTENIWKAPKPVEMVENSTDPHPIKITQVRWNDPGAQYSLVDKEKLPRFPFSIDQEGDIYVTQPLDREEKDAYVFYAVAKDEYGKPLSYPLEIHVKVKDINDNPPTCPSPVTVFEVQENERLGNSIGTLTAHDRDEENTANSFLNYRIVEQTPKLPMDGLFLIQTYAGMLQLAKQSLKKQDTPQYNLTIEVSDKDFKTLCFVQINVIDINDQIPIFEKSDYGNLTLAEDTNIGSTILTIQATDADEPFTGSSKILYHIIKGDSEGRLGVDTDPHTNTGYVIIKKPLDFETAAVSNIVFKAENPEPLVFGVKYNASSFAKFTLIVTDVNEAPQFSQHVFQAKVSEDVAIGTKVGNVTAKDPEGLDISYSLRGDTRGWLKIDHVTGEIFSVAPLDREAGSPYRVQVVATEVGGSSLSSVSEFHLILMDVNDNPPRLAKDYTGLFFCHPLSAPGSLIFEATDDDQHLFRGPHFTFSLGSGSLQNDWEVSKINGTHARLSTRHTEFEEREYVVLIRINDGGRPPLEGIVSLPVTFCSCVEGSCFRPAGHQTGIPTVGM
Assay: SPR (Biacore 8K), antibody captured on Protein A chip, hCDH17-his injected
MEASURE: binding result

[[record]]
binder = "69E3H11-z12 (antibody, V domains shown, Humanized, human IgG1 constant region; also called 69E3H11 HU-VH1-3 / HU-VL2-0) VH: QVQLVQSGAEVKKPGASVKVSCKASGYTFTTYWMHWVKQAPGQRLEWIGEIDPSDSYANYNQKFKGKATLTVDKSASTAYMELSSLRSEDTAVYYCALYYGYGDWGQGTTVTVSS VL: EIVLTQSPGTLSLSPGERATLSCSVSSSISSIHLHWYQQKPGQAPRLLIYRTSNLASGIPDRFSGSGSGTDFTLTISRLEPEDFAVYYCQQGSNLPLTFGQGTRLEIK"
result = "binds"

[[record]]
binder = "20C3E8 chimeric mAb (antibody, V domains shown, Mouse variable regions fused to human IgG1 constant region) VH: QVQLQQSGAELARPGASVKLSCKASGYTFTSYGISWVKQRTGQGLEWIGEIYPRSGNTYYNEKFKGKATLTADKSSSTAYMELRSLTSEDSAVYFCSRLDYGTSPFDYWGQGTTLTVSS VL: NIVMTQSPKSMSMSVGERVTLSCKASENVGTFVSWYQHKPEQSPKLLIYGASNRYTGVPDRFTGSGSATDFTLTISSVQAEDLADYHCGQSYSYPYTFGGGTKLEIK"
result = "binds"

[[record]]
binder = "95F2C2F12 chimeric mAb (antibody, V domains shown, Mouse variable regions fused to human IgG1 constant region) VH: QVQLQQSGAELMKPGASVKLSCKATGYTFTGYWIEWIKQRPGHGLEWIGEILPGSGSTNYNEKFKGKATFTADTSSNTAYMELSSLTTEDSAIYYCARAGYNNWGQGTTLTVSS VL: DIQMTQSPSSLSASLGERVSLTCRASQDIGRSVNWLQQEPDGTIKRLIYATSSLESGVPKRFSGSRSGSDYFLTISSLESEDFVDYYCLQYASSPLTFGAGTKLELK"
result = "binds"

